Ref: patent US20080214845A1

target: 16S; assay: Measurement of 16S Kd by FTICR mass spectrometry
# Kd per entry
quantity kind: Kd (nM)

INSERT INTO measurements (compound, quantity_kind, reading_unit, val) VALUES
  ('NC[C@@H]1O[C@H](O[C@H]2[C@@H](O)[C@H](O[C@@H]3[C@@H](O)[C@H](N)C[C@H](N)[C@H]3O[C@H]3O[C@H](CN4CCOCC4)[C@@H](O)[C@H](O)[C@H]3N)O[C@@H]2CO)[C@H](N)[C@@H](O)[C@@H]1O', 'Kd', 'nM', 3640),
  ('CC(C)(C)OC(=O)NNC[C@H]1O[C@H](O[C@H]2[C@H](O[C@@H]3O[C@H](CO)[C@@H](O[C@H]4O[C@@H](CN)[C@@H](O)[C@H](O)[C@H]4N)[C@H]3O)[C@@H](O)[C@H](N)C[C@@H]2N)[C@H](N)[C@@H](O)[C@@H]1O', 'Kd', 'nM', 14.9),
  ('NCC1OC(OC2C(CO)OC(OC3C(O)C(N)CC(N)C3OC3OC(CNCCc4ccccc4)C(O)C(O)C3N)C2O)C(N)C(O)C1O (stereo not drawn)', 'Kd', 'nM', 496);

###

# MIC per entry
tested on: E. Coli.
quantity kind: MIC

INSERT INTO measurements (smiles, val) VALUES
  ('COc1ccc(CCNC[C@H]2O[C@H](O[C@H]3[C@H](O[C@@H]4O[C@H](CO)[C@@H](O[C@H]5O[C@@H](CN)[C@@H](O)[C@H](O)[C@H]5N)[C@H]4O)[C@@H](O)[C@H](N)C[C@@H]3N)[C@H](N)[C@@H](O)[C@@H]2O)cc1', '1.25 to 2.5 µM'),
  ('NCCCCNC[C@H]1O[C@H](O[C@H]2[C@H](O[C@@H]3O[C@H](CO)[C@@H](O[C@H]4O[C@@H](CN)[C@@H](O)[C@H](O)[C@H]4N)[C@H]3O)[C@@H](O)[C@H](N)C[C@@H]2N)[C@H](N)[C@@H](O)[C@@H]1O', '2.5 to 5 µM'),
  ('NC[C@@H]1O[C@H](O[C@H]2[C@@H](O)[C@H](O[C@@H]3[C@@H](O)[C@H](N)C[C@H](N)[C@H]3O[C@H]3O[C@H](CNCCc4cccc(C(F)(F)F)c4)[C@@H](O)[C@H](O)[C@H]3N)O[C@@H]2CO)[C@H](N)[C@@H](O)[C@@H]1O', '0.6 to 1.2 µM');
